experiment: AUC in CD-1 mouse at 30 mg/kg, po; type: ADME, organism-based; set-up: dose 30 mg/kg, route oral; settings: plasma
Items are presented alongside their recorded AUC.
Reply with just the number (in µg·h/mL).

# Smiles, Quantity Measured, Measurement Unit, Value Reported
measured = [
    ("CCCS(=O)(=O)Nc1ccc(F)c(C(=O)Nc2cnc3[nH]ncc3c2)c1F", "AUC", "µg·h/mL", 40),
    ("CCCS(=O)(=O)Nc1ccc(F)c(C(=O)Nc2cnc3[nH]nc(Br)c3c2)c1F", "AUC", "µg·h/mL", 52.5),
    ("CCCS(=O)(=O)Nc1ccc(F)c(C(=O)Nc2cnc3[nH]cc(Br)c3c2)c1F", "AUC", "µg·h/mL", 49),
    ("CCCS(=O)(=O)Nc1ccc(F)c(C(=O)Nc2cnc3[nH]ccc3c2)c1F", "AUC", "µg·h/mL", 200),
    ("CCCS(=O)(=O)Nc1ccc(F)c(C(=O)Nc2cnc3[nH]nc(N(C)C)c3c2)c1F", "AUC", "µg·h/mL", 1.09),
    ("CCCS(=O)(=O)Nc1ccc(Cl)c(C(=O)Nc2cnc3[nH]nc(OC)c3c2)c1F", "AUC", "µg·h/mL", 1080),
    ("CCCS(=O)(=O)Nc1ccc(F)c(C(=O)Nc2cnc3[nH]nc(C)c3c2)c1F", "AUC", "µg·h/mL", 18.3),
    ("CCCS(=O)(=O)Nc1ccc(Cl)c(C(=O)Nc2cnc3[nH]ncc3c2)c1F", "AUC", "µg·h/mL", 147),
]

Turning now to a further record.
Which value of AUC has been reported for CCCS(=O)(=O)Nc1ccc(F)c(C(=O)Nc2cnc3[nH]nc(OC)c3c2)c1F in the records?
190

###

experiment: Oral bioavailability in CD-1 mouse at 100 mg/kg as formulation of 25% SDD; assay type: ADME, organism-based; conditions: in vivo
Quantity Measured: bioavailability

Which value of bioavailability has been reported for CCCS(=O)(=O)Nc1ccc(Cl)c(C(=O)Nc2cnc3[nH]nc(OC)c3c2)c1F in the records?
13%

###

assay: Plasma protein binding in CD-1 mouse; type: ADME, cell-free; details: read-out: PPB (converted)
Classify as follows. Reported fraction unbound greater than or equal to 0.03: criterion met. Reported fraction unbound below: criterion not met.

Here are 6 molecules together with their reported answers.
# Smiles, Label Class
measured = [
    ("CCCS(=O)(=O)Nc1ccc(F)c(C(=O)Nc2cnc3[nH]nc(Br)c3c2)c1F", "criterion not met"),
    ("CCCS(=O)(=O)Nc1ccc(F)c(C(=O)Nc2cnc3[nH]ccc3c2)c1F", "criterion not met"),
    ("CCCS(=O)(=O)Nc1ccc(F)c(C(=O)Nc2cnc3[nH]nc(OC)c3c2)c1F", "criterion not met"),
    ("CCCS(=O)(=O)Nc1ccc(F)c(C(=O)Nc2cnc3[nH]nc(N(C)C)c3c2)c1F", "criterion met"),
    ("CCCS(=O)(=O)Nc1ccc(F)c(C(=O)Nc2cnc3[nH]cc(Br)c3c2)c1F", "criterion not met"),
    ("CCCS(=O)(=O)Nc1ccc(F)c(C(=O)Nc2cnc3[nH]ncc3c2)c1F", "criterion met"),
]

Say whether CCCS(=O)(=O)Nc1ccc(Cl)c(C(=O)Nc2cnc3[nH]ncc3c2)c1F shows fraction unbound of 0.03 or more.
criterion not met

Thanks! And CCCS(=O)(=O)Nc1ccc(F)c(C(=O)Nc2cnc3[nH]nc(C)c3c2)c1F ?
criterion met

Thanks! And CCCS(=O)(=O)Nc1ccc(Cl)c(C(=O)Nc2cnc3[nH]nc(OC)c3c2)c1F ?
criterion not met
